- systemName: Gastrin/cholecystokinin type B receptor (Cavia porcellus)
- testDescription: Evaluated in vitro for its binding affinity towards cholecystokinin type B receptor of guinea pig cortex
pIC50: −log10 of the molar value. *1 amine or outer side, *2 acyl side, *3 side chain or, on linkers, in order; H or OH if unused. Where a SMILES comes first, the peptide text is derived from it. [ ]: non-standard residue; d: D form. The star is where a group is joined. Hydrocinnamoyl(4-OSO3H) = O=C(CCc1ccc(OS(=O)(=O)O)cc1)*; X5 = CCC[C@H]1CCN([*:1])[C@@H]1C(=O)[*:2]; X4 = O=C(c1ccc2cc(OS(=O)(=O)O)ccc2c1)*; NMeF = CN[C@@H](Cc1ccccc1)C(=O)O; Nle = CCCC[C@H](N)C(=O)O; Ava = NCCCCC(=O)O
propertyLabel: pIC50

Example entries begin here.
compound	pIC50
CCCC[C@H](NC(=O)[C@H](Cc1c[nH]c2ccccc12)NC(=O)CNC(=O)[C@H](CC(C)C)NC(=O)CCc1ccc(OS(=O)(=O)O)cc1)C(=O)N[C@@H](CC(=O)O)C(=O)N[C@@H](Cc1ccccc1)C(N)=O ({Hydrocinnamoyl(4-OSO3H)}-LGW[Nle]DF-NH2)	9.23
CCCC[C@H](NC(=O)[C@H](Cc1c[nH]c2ccccc12)NC(=O)CN1CC[C@H](NC(=O)CCc2ccc(OS(=O)(=O)O)cc2)C1=O)C(=O)N[C@@H](CC(=O)O)C(=O)N[C@@H](Cc1ccccc1)C(N)=O	7.82
CCC[C@H]1CCN(C(=O)[C@H](Cc2c[nH]c3ccccc23)NC(=O)CNC(=O)[C@@H]2CCCN2C(=O)CCc2ccc(OS(=O)(=O)O)cc2)[C@@H]1C(=O)N[C@@H](CC(=O)O)C(=O)N(C)[C@@H](Cc1ccccc1)C(N)=O ({Hydrocinnamoyl(4-OSO3H)}-PGW[X5]D[NMeF]-NH2)	9.05
CCCC[C@H](NC(=O)c1ccc2cc(OS(=O)(=O)O)ccc2c1)C(=O)NCC(=O)N[C@@H](Cc1c[nH]c2ccccc12)C(=O)N[C@@H](CCCC)C(=O)N[C@@H](CC(=O)O)C(=O)N[C@@H](Cc1ccccc1)C(N)=O (X4-[Nle]GW[Nle]DF-NH2)	7.49

P = CCCC[C@H](NC(=O)CCc1ccc(OS(=O)(=O)O)cc1)C(=O)NCC(=O)N[C@@H](Cc1c[nH]c2ccccc12)C(=O)N[C@@H](CCCC)C(=O)N[C@@H](CC(=O)O)C(=O)N[C@@H](Cc1ccccc1)C(N)=O
Q = CC(C)C[C@H](NC(=O)[C@H](Cc1c[nH]c2ccccc12)NC(=O)CCCCNC(=O)CCc1ccc(OS(=O)(=O)O)cc1)C(=O)N[C@@H](CC(=O)O)C(=O)N[C@@H](Cc1ccccc1)C(N)=O ({Hydrocinnamoyl(4-OSO3H)-Ava}-WLDF-NH2)
Larger number for pIC50: P , or Q ? Please indicate the selected item by its label.
P
(P: 9.30, Q: 8.96)

###

- systemName: Cholecystokinin receptor type A (Cavia porcellus)
- testDescription: Evaluated in vitro for its binding affinity towards cholecystokinin type A receptor of guinea pig pancreas
*1 amine or outer side, *2 acyl side, *3 side chain or, on linkers, in order; H or OH if unused. Where a SMILES comes first, the peptide text is derived from it. [ ]: non-standard residue; d: D form. The star is where a group is joined. Hydrocinnamoyl(4-OSO3H) = O=C(CCc1ccc(OS(=O)(=O)O)cc1)*; X2 = O=C([C@@H]1CC(OS(=O)(=O)O)CN1[*:1])[*:2]; X1 = CCCC1CCN([*:1])[C@@H]1C(=O)[*:2]; X3 = O=C(/C(=C/c1ccccc1)N[*:1])[*:2]; NMeF = CN[C@@H](Cc1ccccc1)C(=O)O; Nle = CCCC[C@H](N)C(=O)O
Each record here notes measured IC50.
Answer in nM, number only, no unit symbol.

Example entries begin here.
compound	systemName	unitsSymbol	IC50
CCCC[C@H](NC(=O)CCc1ccc(OS(=O)(=O)O)cc1)C(=O)NCC(=O)N[C@@H](Cc1c[nH]c2ccccc12)C(=O)N[C@@H](CCCC)C(=O)N[C@@H](CC(=O)O)C(=O)N(C)[C@@H](Cc1ccccc1)C(N)=O [CCK7 analogue] ({Hydrocinnamoyl(4-OSO3H)}-[Nle]GW[Nle]D[NMeF]-NH2)	Cholecystokinin receptor type A (Cavia porcellus)	nM	0.99
CCCC[C@H](NC(=O)CCc1ccc(OS(=O)(=O)O)cc1)C(=O)NCC(=O)N[C@@H](Cc1c[nH]c2ccccc12)C(=O)N[C@@H](CCCC)C(=O)N1CC(OS(=O)(=O)O)C[C@H]1C(=O)N[C@@H](Cc1ccccc1)C(N)=O (some centres undefined) ({Hydrocinnamoyl(4-OSO3H)}-[Nle]GW[Nle][X2]F-NH2)	Cholecystokinin receptor type A (Cavia porcellus)	nM	16
CCCC[C@H](NC(=O)CCc1ccc(OS(=O)(=O)O)cc1)C(=O)NCC(=O)N[C@@H](Cc1c[nH]c2ccccc12)C(=O)N[C@@H](CCCC)C(=O)N[C@@H](CC(=O)O)C(=O)N/C(=C\c1ccccc1)C(N)=O ({Hydrocinnamoyl(4-OSO3H)}-[Nle]GW[Nle]D[X3]-NH2)	Cholecystokinin receptor type A (Cavia porcellus)	nM	5.3

Now consider the entry below.
Give the reported value of IC50 for this record: CCCC[C@H](NC(=O)CCc1ccc(OS(=O)(=O)O)cc1)C(=O)NCC(=O)N[C@@H](Cc1c[nH]c2ccccc12)C(=O)N1CCC(CCC)[C@H]1C(=O)N[C@@H](CC(=O)O)C(=O)N(C)[C@@H](Cc1ccccc1)C(N)=O (some centres undefined) ({Hydrocinnamoyl(4-OSO3H)}-[Nle]GW[X1]D[NMeF]-NH2)
4.2
